- testDescription: Percentage unbound in dog plasma
- Format: ADME, cell-free, Canis lupus familiaris
experimentalEndpoint: fraction unbound

query: Value lookup for fraction unbound; key = "COc1ccc(N2CCN(C(=O)[C@@H]3CCCC[C@H]3C(=O)NC3(C#N)CC3)[C@H](C)C2)cc1OC"
result: 0.39

----------
- targetOrSystem: Cathepsin S (Homo sapiens, UniProt P25774)
- Sequence (P25774 whole entry): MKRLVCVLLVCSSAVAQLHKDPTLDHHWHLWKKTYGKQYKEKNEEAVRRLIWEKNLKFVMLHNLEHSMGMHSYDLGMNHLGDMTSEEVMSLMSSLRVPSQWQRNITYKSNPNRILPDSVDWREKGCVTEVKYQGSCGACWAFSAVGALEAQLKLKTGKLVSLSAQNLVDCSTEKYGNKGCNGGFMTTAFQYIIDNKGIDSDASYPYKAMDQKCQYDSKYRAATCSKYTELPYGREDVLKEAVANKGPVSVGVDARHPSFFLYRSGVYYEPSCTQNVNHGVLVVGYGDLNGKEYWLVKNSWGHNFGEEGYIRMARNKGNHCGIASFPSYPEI
- testDescription: Inhibition of human recombinant cathepsin-S using Z-Val-Val-Arg-AMC as substrate preincubated for 15 mins measured after 1 hr by QFRET assay
experimentalEndpoint: IC50

query: Value wanted: IC50 (Cathepsin S (Homo sapiens, UniProt P25774)) of entry "COc1cc(N2CCN(C(=O)[C@@H]3CCCC[C@H]3C(=O)NC3(C#N)CC3)[C@H](C)C2)ccc1C1CC1"
result: 1370 nM

query: // next record CC1CN(c2ccc(S(C)(=O)=O)cc2)C(C)CN1C(=O)[C@@H]1CCCC[C@H]1C(=O)NC1(C#N)CC1 (some centres not stated)
result: > 7430 nM

query: Do the same for "C[C@@H]1CN(c2ccc3c(c2)OCO3)CCN1C(=O)[C@@H]1CCCC[C@H]1C(=O)NC1(C#N)CC1" please
result: 1150 nM

query: Consider next the molecule "Cc1noc2cc(N3CCN(C(=O)[C@@H]4CCCC[C@H]4C(=O)NC4(C#N)CC4)[C@H](C)C3)ccc12" in the same way.
result: 807 nM

query: Now the molecule "CS(=O)(=O)c1ccc(N2CCN(C(=O)[C@@H]3CCCC[C@H]3C(=O)NCC#N)CC2)cc1"
result: 1290 nM

query: // same read-out, input: "C[C@@H]1CN(c2ccc(S(C)(=O)=O)cc2)CCN1C(=O)[C@@H]1CCCC[C@H]1C(=O)NC1(C#N)CC1"
result: 549 nM

query: // repeat for "N#CCNC(=O)[C@@H]1CCCC[C@H]1C(=O)N1CCN(c2ccc(C#N)cc2)CC1" and report
result: 2600 nM

query: Same for "C[C@@H]1CN(c2ccccc2)CCN1C(=O)[C@@H]1CCCC[C@H]1C(=O)NC1(C#N)CC1"
result: 1300 nM

query: And the next one, "CS(=O)(=O)c1ccc(N2CCN(C(=O)[C@@H]3CCCC[C@H]3C(=O)NC3(C#N)CC3)CC2)cc1" ?
result: 2150 nM

query: Thanks! And "Cc1nn(C)c2ccc(N3CCN(C(=O)[C@@H]4CCCC[C@H]4C(=O)NC4(C#N)CC4)[C@H](C)C3)cc12" ?
result: 1230 nM

query: Try this molecule next: "C[C@@H]1CN(c2ccc(S(C)(=O)=O)cc2)C[C@H](C)N1C(=O)[C@@H]1CCCC[C@H]1C(=O)NC1(C#N)CC1"
result: > 11800 nM

query: Also check "C[C@H]1CN(c2ccc(S(C)(=O)=O)cc2)CCN1C(=O)[C@@H]1CCCC[C@H]1C(=O)NC1(C#N)CC1"
result: 1510 nM

query: Another molecule to look at: "Cc1nn(C)c2cc(N3CCN(C(=O)[C@@H]4CCCC[C@H]4C(=O)NC4(C#N)CC4)[C@H](C)C3)ccc12"
result: 1250 nM

query: Also, "COc1ccc(N2CCN(C(=O)[C@@H]3CCCC[C@H]3C(=O)NCC#N)CC2)cc1" please.
result: 1050 nM

query: What do you have for "N#CCNC(=O)[C@@H]1CCCC[C@H]1C(=O)N1CCN(c2ccc(F)cc2)CC1" ?
result: 1680 nM

query: Ok, now "C[C@@H]1CN(c2ccccc2)CCN1C(=O)[C@@H]1CCCC[C@H]1C(=O)NCC#N"
result: 1220 nM

query: // next record "COc1ccc(N2CCN(C(=O)[C@@H]3CCCC[C@H]3C(=O)NC3(C#N)CC3)CC2)cc1OC"
result: 2290 nM
